Where these numbers come from: the supplement of paper PMC12764529

experimental-details: folding stability dG unfold from trypsin proteolysis; higher = more stable
# reported folding stability dG unfold; entries follow
# unit: kJ/mol | format: bare number

For orientation, consider the following solved cases.
> print(dat)
                                        seq  reading
1  SAMRMISFPIESPEELEDELEEKFGVEVETFPDGMRMIKFRRNNEPVIIMIPPNNGHITIIPPEDMDKMSAG [r14_402_TrROS]     2.87
2  SAGGSAGGSAGGGRVELELTFIREDGYAVKVRIEVDEDGNLRIEVEVVKLPPAASPEELSAGGSAGGSAGGS [r10_878_TrROS_Hall]     13.5

So what does the record say about folding stability dG unfold for SAGGSAGGSAWRLYIGGQKIEIPPGGPVKLERHKNGWVKIEIKMPGGRKKEFTIPIPPGATSAGGSAGGSAG [r3_207_TrROS] ? 5.16

Entry to check: SAGGSAGGLPEGDIYRIRVTLPNGNTFTITFPVKSVEQAKDFAKSFLESLGLPDVKVDIEPVPVSAGGSAGG [r6_844_TrROS] 14.8

Entry to check: SAGGSAGGSAGGMTVVERTIEVEPDAKVIPLNLPGSNISATVLEYDPETGTLKVKIYVKESAGGSAGGSAGG [r17_198_JUSTAS] 2.03

Entry to check: SAGGLEELAKEIADDLQKRNPDMNIEVQVEVHEYKIPPGQKMRHPDGEEKEVPPGQKVYMFTIRVTPSAGGS [r16_357_TrROS] 3.17

Entry to check: SAGGSAGGSAMVVEVPVEFPDDVKVYSVEEDPELGVLLVKVKFPDREVLAVIPGDKLFIADASAGGSAGGSA [r18_212_TrMRF] 1.8

* * *

experimental-details: folding stability dG unfold from chymotrypsin proteolysis; higher = more stable
The label depends only on folding stability dG unfold: class 1 if it is at least 1 kJ/mol, class 0 if it is smaller.

Example entries begin here.
> print(dat)
                                        seq  class.label
1  SAGGSAGGSAGAPNIVVVTLTRDALFYNPVEGKWEVKPVTLTRAFTSKEEADKWLEEIGLSAGGSAGGSAGG [r11_984_TrMRF]      class 1
2  SAGSSSMVLLKVTITFTDPNGTTTTLTYTFDDPSNPEKARAAVEALAAEIKAATGASWTITMTTVPVPGSAG [r14_146_JUSTAS]      class 1
3  SAGGSAGGSMPFIKVKVRFIEPNGIERTFEIELPEDKNLDEAIKLAPLFAKNGLPVEIEEVEGSAGGSAGGS [r12_804_TrMRF]      class 0
4  SAGTVSSSFDPATGTLTITRTTSPDETVDLTLNVEVPETPATVAKVDSGGPVEGDEPVTITVELTDLKPSAG [r5_737_JUSTAS]      class 0
5  SAGGSAGGSQKPTIEKEGGRYYIRNPDNGKSFPINIEREDNEWKFEFGDGEITIPGEFEIQRRSAGGSAGGS [r12_683_TrROS]      class 0

Next:
Is reported folding stability dG unfold greater than or equal to 1 kJ/mol here: SAGGMITLPIPLEEAEKLLKELTPDGGDVTTTPLGSLDGEVLYEVTITPPETGNTVTVKVLVPKGRGSAGGS [r16_486_JUSTAS] class 0
